Each record here notes measured IC50.
# Target Of Assay: UniProt P00533
# Sequence (P00533 669-1210): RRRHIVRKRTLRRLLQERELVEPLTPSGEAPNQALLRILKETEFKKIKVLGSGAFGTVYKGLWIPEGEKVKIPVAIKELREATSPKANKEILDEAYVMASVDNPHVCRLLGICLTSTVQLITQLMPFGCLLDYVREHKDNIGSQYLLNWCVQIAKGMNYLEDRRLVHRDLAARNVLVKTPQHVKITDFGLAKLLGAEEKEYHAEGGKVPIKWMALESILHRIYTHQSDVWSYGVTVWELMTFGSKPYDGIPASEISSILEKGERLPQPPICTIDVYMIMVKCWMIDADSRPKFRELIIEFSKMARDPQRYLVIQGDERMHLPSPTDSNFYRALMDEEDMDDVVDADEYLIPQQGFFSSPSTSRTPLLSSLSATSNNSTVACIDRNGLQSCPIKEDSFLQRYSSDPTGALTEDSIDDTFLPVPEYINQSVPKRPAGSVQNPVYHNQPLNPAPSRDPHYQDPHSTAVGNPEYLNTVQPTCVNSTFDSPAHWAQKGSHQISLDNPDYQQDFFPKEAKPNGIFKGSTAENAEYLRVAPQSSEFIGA
Outcome Measure: IC50 (nM)

1. Cc1ccc2[nH]c(=O)c(/C=N/Nc3ccc([N+](=O)[O-])cc3[N+](=O)[O-])c(O)c2c1 [Compound 5b]
106
2. O=c1[nH]c2ccccc2c(O)c1/C=N/Nc1ccc([N+](=O)[O-])cc1[N+](=O)[O-] [Compound 5a]
87

----------
# Test system: pancreatic (Panc-1) cancer cell line
# Assay Procedure: Antiproliferative assay, Panc-1
# Type: cell-based
# Assay Conditions: Homo sapiens, read-out: Antiproliferative activity IC50 ± SEM, Panc-1
Could you please classify the records by IC50 using these ranges: range A (below 50 nM), range B (50 nM to below 80 nM), range C (80 nM or more)

1. COc1ccc2[nH]c(=O)c(/C=N/Nc3ccc([N+](=O)[O-])cc3[N+](=O)[O-])c(O)c2c1 [Compound 5c]
range B
2. CCn1c(=O)c(/C=N/NS(=O)(=O)c2ccc(C)cc2)c(O)c2ccccc21 [Compound 3e]
range B
3. Cc1cccc2c(O)c(/C=N/Nc3ccc([N+](=O)[O-])cc3[N+](=O)[O-])c(=O)[nH]c12 [Compound 5d]
range B
4. Cc1ccc(S(=O)(=O)N/N=C/c2c(O)c3cc(C)ccc3[nH]c2=O)cc1 [Compound 3c]
range B
5. Cc1ccc(S(=O)(=O)N/N=C/c2c(O)c3ccccc3n(C)c2=O)cc1 [Compound 3a]
range C
6. Cc1ccc(S(=O)(=O)N/N=C/c2c(O)c3ccccc3[nH]c2=O)cc1 [Compound 3d]
range A
7. Cc1ccc(S(=O)(=O)N/N=C/c2c(O)c3cccc(C)c3[nH]c2=O)cc1 [Compound 3h]
range C
8. Cc1ccc2c(O)c(/C=N/Nc3ccc([N+](=O)[O-])cc3[N+](=O)[O-])c(=O)[nH]c2c1 [Compound 5f]
range C
9. C#Cc1cccc(Nc2ncnc3cc(OCCOC)c(OCCOC)cc23)c1 [Erlotinib, reference compound]
range A
10. Cn1c(=O)c(/C=N/Nc2ccc([N+](=O)[O-])cc2[N+](=O)[O-])c(O)c2ccccc21 [Compound 5e]
range B
11. Cc1ccc(S(=O)(=O)N/N=C/c2c(O)c3cc(Cl)ccc3[nH]c2=O)cc1 [Compound 3f]
range A
12. Cc1ccc(S(=O)(=O)N/N=C/c2c(O)c3ccc(C)cc3[nH]c2=O)cc1 [Compound 3g]
range C
13. Cc1ccc2[nH]c(=O)c(/C=N/Nc3ccc([N+](=O)[O-])cc3[N+](=O)[O-])c(O)c2c1 [Compound 5b]
range B
14. O=c1[nH]c2ccccc2c(O)c1/C=N/Nc1ccc([N+](=O)[O-])cc1[N+](=O)[O-] [Compound 5a]
range A
15. COc1ccc2[nH]c(=O)c(/C=N/NS(=O)(=O)c3ccc(C)cc3)c(O)c2c1 [Compound 3b]
range B

----------
# Assay Procedure: Cell viability assay (MTT), normal mammary cells
# Assay Conditions: human, MCF-10A normal mammary epithelial cells
Outcome Measure: viability at 4 days, 50 µM (%)

1) Cc1ccc(S(=O)(=O)N/N=C/c2c(O)c3ccccc3[nH]c2=O)cc1
91
2) CCn1c(=O)c(/C=N/NS(=O)(=O)c2ccc(C)cc2)c(O)c2ccccc21
89
3) Cc1ccc(S(=O)(=O)N/N=C/c2c(O)c3cc(Cl)ccc3[nH]c2=O)cc1
90
4) Cc1ccc(S(=O)(=O)N/N=C/c2c(O)c3cc(C)ccc3[nH]c2=O)cc1
86
5) COc1ccc2[nH]c(=O)c(/C=N/NS(=O)(=O)c3ccc(C)cc3)c(O)c2c1
92
6) Cc1ccc2[nH]c(=O)c(/C=N/Nc3ccc([N+](=O)[O-])cc3[N+](=O)[O-])c(O)c2c1
90
7) Cc1ccc(S(=O)(=O)N/N=C/c2c(O)c3ccccc3n(C)c2=O)cc1
90
8) Cc1ccc(S(=O)(=O)N/N=C/c2c(O)c3ccc(C)cc3[nH]c2=O)cc1
87
9) Cc1ccc(S(=O)(=O)N/N=C/c2c(O)c3cccc(C)c3[nH]c2=O)cc1
90

----------
# Tested on: four human cancer cell lines (A-549, MCF-7, Panc-1, HT-29)
# Assay Procedure: Antiproliferative assay, average over four cancer cell lines
# Assay type: cell-based
# Assay Conditions: ratio to 3d GI50 = 41 nM
Each record here notes measured Potency reduction (fold) compared to 3d (GI50).
Outcome Measure: Potency reduction (fold) compared to 3d (GI50)

1) COc1ccc2[nH]c(=O)c(/C=N/NS(=O)(=O)c3ccc(C)cc3)c(O)c2c1 [Compound 3b]
1.4
2) Cc1ccc(S(=O)(=O)N/N=C/c2c(O)c3cc(C)ccc3[nH]c2=O)cc1 [Compound 3c]
1.3

----------
# Assay Procedure: in vitro
# Assay Conditions: human
Each record here notes measured viability at 4 days, 50 µM.
Outcome Measure: viability at 4 days, 50 µM (%)

1. O=c1[nH]c2ccc(Cl)cc2c(O)c1/C=N/Nc1ccc([N+](=O)[O-])cc1[N+](=O)[O-] [Compound 5g]
91
2. Cn1c(=O)c(/C=N/Nc2ccc([N+](=O)[O-])cc2[N+](=O)[O-])c(O)c2ccccc21 [Compound 5e]
87
3. Cc1cccc2c(O)c(/C=N/Nc3ccc([N+](=O)[O-])cc3[N+](=O)[O-])c(=O)[nH]c12 [Compound 5d]
92
4. COc1ccc2[nH]c(=O)c(/C=N/Nc3ccc([N+](=O)[O-])cc3[N+](=O)[O-])c(O)c2c1 [Compound 5c]
89
5. Cc1ccc2c(O)c(/C=N/Nc3ccc([N+](=O)[O-])cc3[N+](=O)[O-])c(=O)[nH]c2c1 [Compound 5f]
90
6. O=c1[nH]c2ccccc2c(O)c1/C=N/Nc1ccc([N+](=O)[O-])cc1[N+](=O)[O-] [Compound 5a]
88

----------
As an illustration, consider measured IC50 for compounds on HER-2 (Homo sapiens).
Sequence (P04626 676-1255 limits assumed): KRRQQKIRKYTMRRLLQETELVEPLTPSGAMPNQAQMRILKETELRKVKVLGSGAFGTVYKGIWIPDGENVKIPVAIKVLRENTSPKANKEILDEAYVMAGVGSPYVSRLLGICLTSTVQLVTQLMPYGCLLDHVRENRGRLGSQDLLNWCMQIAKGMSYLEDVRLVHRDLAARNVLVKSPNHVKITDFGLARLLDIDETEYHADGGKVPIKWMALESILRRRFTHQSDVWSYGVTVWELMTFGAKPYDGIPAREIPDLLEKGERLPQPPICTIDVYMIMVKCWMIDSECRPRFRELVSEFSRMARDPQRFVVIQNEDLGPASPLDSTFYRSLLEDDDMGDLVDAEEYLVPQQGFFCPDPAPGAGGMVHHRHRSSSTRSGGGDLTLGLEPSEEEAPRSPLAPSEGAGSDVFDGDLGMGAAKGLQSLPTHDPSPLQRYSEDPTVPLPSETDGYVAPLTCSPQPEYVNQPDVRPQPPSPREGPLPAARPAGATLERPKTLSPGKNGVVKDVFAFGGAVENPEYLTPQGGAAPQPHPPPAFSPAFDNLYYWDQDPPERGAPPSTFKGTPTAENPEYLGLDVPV
Outcome Measure: IC50 (nM)

1) O=c1[nH]c2ccccc2c(O)c1/C=N/Nc1ccc([N+](=O)[O-])cc1[N+](=O)[O-]
33
2) Cc1ccc(S(=O)(=O)N/N=C/c2c(O)c3cc(Cl)ccc3[nH]c2=O)cc1
44
3) Cc1ccc2[nH]c(=O)c(/C=N/Nc3ccc([N+](=O)[O-])cc3[N+](=O)[O-])c(O)c2c1
56

----------
# Test system: four human cancer cell lines (A-549, MCF-7, Panc-1, HT-29)
# Assay Procedure: Antiproliferative assay, average over four cancer cell lines
# Assay type: cell-based
# Assay Conditions: ratio to 3d GI50 = 41 nM
Outcome Measure: Potency reduction (fold) compared to 3d (GI50)

1. Cc1ccc(S(=O)(=O)N/N=C/c2c(O)c3ccc(C)cc3[nH]c2=O)cc1
at least 2.3
2. Cc1ccc(S(=O)(=O)N/N=C/c2c(O)c3cccc(C)c3[nH]c2=O)cc1
at least 2.3
3. Cc1ccc(S(=O)(=O)N/N=C/c2c(O)c3ccccc3n(C)c2=O)cc1
at least 2.3
